Each recorded value in this set is attributed to ChEMBL document CHEMBL2203264.

# System: Caco-2
# protocol description: Permeability across human Caco2 cells
# Assay type: ADME, cell-based
experimental readout: permeability
Remember to put the unit after the number in your answer.

Given the compound Cc1nn(C)cc1-c1nc2c(N3CCN(Cc4ccc(Cl)cc4)CC3)c(Cl)cnc2[nH]1 [MOBINITINIB] , what is its reported permeability?
18.6 ×10⁻⁶ cm/s

---

# study system: Aurora kinase A (Homo sapiens, UniProt O14965)
# Sequence (O14965 whole entry): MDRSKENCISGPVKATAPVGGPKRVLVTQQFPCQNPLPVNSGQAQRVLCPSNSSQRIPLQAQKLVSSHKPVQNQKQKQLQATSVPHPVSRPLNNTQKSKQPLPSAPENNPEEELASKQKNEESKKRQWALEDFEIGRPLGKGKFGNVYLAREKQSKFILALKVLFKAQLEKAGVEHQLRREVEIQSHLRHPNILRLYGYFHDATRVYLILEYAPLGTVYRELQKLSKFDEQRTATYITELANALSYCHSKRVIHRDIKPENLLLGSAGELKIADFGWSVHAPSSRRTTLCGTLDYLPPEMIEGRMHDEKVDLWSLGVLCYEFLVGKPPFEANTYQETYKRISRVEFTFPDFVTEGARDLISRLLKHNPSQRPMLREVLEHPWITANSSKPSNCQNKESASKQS
The threshold is 10 nM. Values of IC50 beneath it are tagged y; values meeting or exceeding it are tagged n.

{"columns": ["molecule smiles", "class name"],
 "data": [
  ["Cc1cc(CN2CCN(c3c(Cl)cnc4[nH]c(-c5ccoc5)nc34)CC2)no1", "n"],
  ["Cc1cc(CN2CCN(c3c(Cl)cnc4[nH]c(-c5cn(C)nc5C)nc34)CC2)no1", "n"],
  ["Cc1cc(CN2CCN(c3c(Br)cnc4[nH]c(-c5ccc(N6CCOCC6)cc5)nc34)CC2)no1", "y"],
  ["CC(=O)N1CCN(c2ccc(-c3nc4ncc(Br)c(N5CCN(Cc6cc(C)on6)CC5)c4[nH]3)cc2)CC1", "y"],
  ["Cc1cc(CN2CCN(c3c(Cl)cnc4nc(-c5ccn(C)n5)[nH]c34)CC2)no1", "n"],
  ["Cc1cc(CN2CCN(c3c(Br)cnc4nc(-c5csnn5)[nH]c34)CC2)no1", "n"],
  ["CCN1CCN(c2ccc(-c3nc4c(N5CCN(Cc6cc(C)on6)CC5)c(Cl)cnc4[nH]3)cc2)CC1", "y"],
  ["Cc1cc(CN2CCN(c3c(Cl)cnc4nc(-c5cccc(CN6CCOCC6)c5)[nH]c34)CC2)no1", "n"]
]}

Okay, now this compound:
Lab note: confirm whether the reported IC50 for this compound is below 10 nM, equality not counting. compound: `CCn1cc(-c2nc3ncc(Cl)c(N4CCN(Cc5cc(C)on5)CC4)c3[nH]2)cn1`
n

---

# study system: Voltage-gated inwardly rectifying potassium channel KCNH2 (Homo sapiens, UniProt Q12809)
# Sequence (Q12809 whole entry): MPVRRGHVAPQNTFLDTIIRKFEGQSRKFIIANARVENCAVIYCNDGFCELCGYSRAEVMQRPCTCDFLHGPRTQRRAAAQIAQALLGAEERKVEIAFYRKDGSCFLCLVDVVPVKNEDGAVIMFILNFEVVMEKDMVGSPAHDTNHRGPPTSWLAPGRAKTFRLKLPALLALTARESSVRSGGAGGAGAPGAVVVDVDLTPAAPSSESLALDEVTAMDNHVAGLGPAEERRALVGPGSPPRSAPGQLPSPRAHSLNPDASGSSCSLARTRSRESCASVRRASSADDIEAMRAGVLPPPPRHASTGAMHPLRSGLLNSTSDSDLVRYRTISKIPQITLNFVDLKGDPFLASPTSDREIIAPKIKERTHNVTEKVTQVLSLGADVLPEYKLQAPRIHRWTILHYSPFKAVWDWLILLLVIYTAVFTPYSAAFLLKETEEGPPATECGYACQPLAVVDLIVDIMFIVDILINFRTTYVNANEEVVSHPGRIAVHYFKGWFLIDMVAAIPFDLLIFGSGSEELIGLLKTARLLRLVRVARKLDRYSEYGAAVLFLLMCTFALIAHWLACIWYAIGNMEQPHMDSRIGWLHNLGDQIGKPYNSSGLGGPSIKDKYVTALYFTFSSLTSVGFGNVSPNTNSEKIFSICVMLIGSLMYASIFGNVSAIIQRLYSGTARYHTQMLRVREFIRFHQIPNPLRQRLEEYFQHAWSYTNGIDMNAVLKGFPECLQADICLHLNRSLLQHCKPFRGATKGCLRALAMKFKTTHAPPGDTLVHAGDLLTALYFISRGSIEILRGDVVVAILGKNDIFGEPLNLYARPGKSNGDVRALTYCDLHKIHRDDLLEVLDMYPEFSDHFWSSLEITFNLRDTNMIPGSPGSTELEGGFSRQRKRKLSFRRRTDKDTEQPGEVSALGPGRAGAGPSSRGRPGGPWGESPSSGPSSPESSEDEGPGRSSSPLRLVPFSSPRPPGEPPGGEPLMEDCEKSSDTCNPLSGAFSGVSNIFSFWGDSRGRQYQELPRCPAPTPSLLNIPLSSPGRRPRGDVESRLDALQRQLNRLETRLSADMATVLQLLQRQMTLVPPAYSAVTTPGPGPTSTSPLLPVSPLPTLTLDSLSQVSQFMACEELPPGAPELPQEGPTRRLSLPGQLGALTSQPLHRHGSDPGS
# protocol description: Inhibition of human ERG by whole-cell voltage clamping
pIC50: −log10 of the molar value.
experimental readout: pIC50

Given the compound `Cc1nn(C)cc1-c1nc2c(N3CCN(Cc4ccc(Cl)cc4)CC3)c(Cl)cnc2[nH]1` , what is its reported pIC50?
< 4.60

---

# protocol description: Oral bioavailability in Balb/C mouse at 5 mg/kg
# Format: ADME, organism-based
# experimental setup: in vivo
experimental readout: bioavailability (%)
# output: bare number, implied unit %

Given the compound `Cc1nn(C)cc1-c1nc2c(N3CCN(Cc4ccc(Cl)cc4)CC3)c(Cl)cnc2[nH]1` , what is its reported bioavailability?
100

---

# protocol description: Binding affinity to FLT3 ITD mutant
experimental readout: Kd (nM)
# output: bare number, implied unit nM

Some molecules with recorded Kd:
{"columns": ["molecule smiles", "experimental readout", "data value"],
 "data": [
  ["Cc1cc(CN2CCN(c3c(Cl)cnc4[nH]c(-c5cn(C)nc5C)nc34)CC2)no1", "Kd", 10],
  ["Cc1cc(CN2CCN(c3c(Br)cnc4nc(-c5ccc(N6CCN(C)CC6)cc5)[nH]c34)CC2)no1", "Kd", 4.9],
  ["Cc1cc(CN2CCN(c3c(Br)cnc4[nH]c(-c5cncn5C)nc34)CC2)no1", "Kd", 62],
  ["Cc1cc(CN2CCN(c3c(Cl)cnc4[nH]c(-c5cnn(C)c5)nc34)CC2)no1", "Kd", 66]
]}

Given the molecule `Cc1nn(C)cc1-c1nc2c(N3CCN(Cc4cncnc4)CC3)c(Cl)cnc2[nH]1` , what is its reported Kd?
15

Now the same for `Cc1cc(CN2CCN(c3c(Cl)cnc4[nH]c(-c5cccc(N6CCN(C)CC6)c5)nc34)CC2)no1`
26

---

# protocol description: AUC (infinity) in Balb/C mouse at 5 mg/kg, iv
# Assay type: ADME, organism-based
# Set-up: time infinity, dose 5 mg/kg, route intravenous
# experimental setup: plasma
experimental readout: AUC(0-inf) (µM·h)
# output: bare number, implied unit µM·h

Given the compound `Cc1nn(C)cc1-c1nc2c(N3CCN(Cc4ccc(Cl)cc4)CC3)c(Cl)cnc2[nH]1` , what is its reported AUC(0-inf)?
3.75

---

Quick list: IC50 per entry.
# study system: Aurora kinase A (Homo sapiens, UniProt O14965)
# output: bare number, implied unit nM

Some molecules with recorded IC50:
{"columns": ["molecule smiles", "data value"],
 "data": [
  ["Cc1cc(CN2CCN(c3c(Br)cnc4[nH]c(-c5cncn5C)nc34)CC2)no1", 15],
  ["Cc1cc(CN2CCN(c3c(Br)cnc4nc(-c5nc(C)oc5C)[nH]c34)CC2)no1", 2200],
  ["Cc1cc(CN2CCN(c3c(Cl)cnc4[nH]c(-c5cnn(CC(F)F)c5)nc34)CC2)no1", 45],
  ["Cc1cc(CN2CCN(c3c(Cl)cnc4nc(-c5nccn5C)[nH]c34)CC2)no1", 564]
]}

Please examine the following record next.
Identify the measured IC50 of `Cc1nn(C)cc1-c1nc2ncc(Cl)c(N3CCN(Cc4cnccn4)CC3)c2[nH]1` for Aurora kinase A (Homo sapiens, UniProt O14965).
27

---

# study system: UniProtKB P08684
# Sequence (P08684 whole entry): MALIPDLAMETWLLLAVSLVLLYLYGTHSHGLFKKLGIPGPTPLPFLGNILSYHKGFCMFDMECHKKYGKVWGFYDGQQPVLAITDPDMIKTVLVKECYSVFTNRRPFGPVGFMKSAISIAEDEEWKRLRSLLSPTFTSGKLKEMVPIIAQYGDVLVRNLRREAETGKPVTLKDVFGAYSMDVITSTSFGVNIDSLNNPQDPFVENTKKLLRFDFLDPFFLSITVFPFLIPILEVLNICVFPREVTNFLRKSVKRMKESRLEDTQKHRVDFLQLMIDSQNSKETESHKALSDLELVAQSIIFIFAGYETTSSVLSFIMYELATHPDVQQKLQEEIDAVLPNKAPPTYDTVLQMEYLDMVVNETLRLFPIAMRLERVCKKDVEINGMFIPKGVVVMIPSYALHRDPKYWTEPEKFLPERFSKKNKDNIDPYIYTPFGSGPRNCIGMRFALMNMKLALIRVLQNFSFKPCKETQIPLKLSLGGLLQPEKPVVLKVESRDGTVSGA
pIC50: −log10 of the molar value.
experimental readout: pIC50

Given the compound `Cc1nn(C)cc1-c1nc2c(N3CCN(Cc4ccc(Cl)cc4)CC3)c(Cl)cnc2[nH]1` , what is its reported pIC50?
< 5.00

---

As an illustration, consider measured pIC50 for molecules on Aurora kinase A (Homo sapiens, UniProt O14965).
Quick note: pIC50 values are minus log10 of concentrations in mol/L.

Some molecules with recorded pIC50:
{"columns": ["molecule smiles", "study system", "experimental readout", "data value"],
 "data": [
  ["Cc1cc(CN2CCN(c3c(Cl)cnc4nc(-c5ccc(N6CCN(C)CC6)c(F)c5)[nH]c34)CC2)no1", "Aurora kinase A (Homo sapiens, UniProt O14965)", "pIC50", 7.96],
  ["Cc1cc(CN2CCN(c3c(Cl)cnc4nc(-c5ccnn5C)[nH]c34)CC2)no1", "Aurora kinase A (Homo sapiens, UniProt O14965)", "pIC50", 6.83],
  ["Cc1cc(CN2CCN(c3c(Cl)cnc4nc(-c5cc(C)on5)[nH]c34)CC2)no1", "Aurora kinase A (Homo sapiens, UniProt O14965)", "pIC50", 6.36],
  ["Cc1cc(CN2CCN(c3c(Cl)cnc4nc(-c5cccc(CN(C)C)c5)[nH]c34)CC2)no1", "Aurora kinase A (Homo sapiens, UniProt O14965)", "pIC50", 7.27],
  ["Cc1cc(CN2CCN(c3c(Cl)cnc4[nH]c(-c5cnn(C)c5)nc34)CC2)no1", "Aurora kinase A (Homo sapiens, UniProt O14965)", "pIC50", 7.35],
  ["Cc1nn(C)cc1-c1nc2c(N3CCN(Cc4ncn(C)n4)CC3)c(Cl)cnc2[nH]1", "Aurora kinase A (Homo sapiens, UniProt O14965)", "pIC50", 7.03],
  ["Cc1nn(C)cc1-c1nc2c(N3CCN(Cc4cncnc4)CC3)c(Cl)cnc2[nH]1", "Aurora kinase A (Homo sapiens, UniProt O14965)", "pIC50", 7.66],
  ["Cc1cc(CN2CCN(c3c(Cl)cnc4[nH]c(-c5cccc(OCCN(C)C)c5)nc34)CC2)no1", "Aurora kinase A (Homo sapiens, UniProt O14965)", "pIC50", 6.89],
  ["Cc1nn(C)cc1-c1nc2ncc(Cl)c(N3CCN(Cc4nonc4C)CC3)c2[nH]1", "Aurora kinase A (Homo sapiens, UniProt O14965)", "pIC50", 8.22],
  ["Cc1cc(CN2CCN(c3c(Cl)cnc4[nH]c(-c5cn(C)nc5C5CC5)nc34)CC2)no1", "Aurora kinase A (Homo sapiens, UniProt O14965)", "pIC50", 8.40]
]}

Identify the measured pIC50 of `Cc1cc(CN2CCN(c3c(Cl)cnc4[nH]c(-c5cccc(N6CCN(C)CC6)c5)nc34)CC2)no1` for Aurora kinase A (Homo sapiens, UniProt O14965).
7.59

Now the same for `Cc1cc(CN2CCN(c3c(Cl)cnc4[nH]c(-c5cnn(C(C)C)c5)nc34)CC2)no1`
7.46

Now the same for `Cc1cc(CN2CCN(c3c(Cl)cnc4[nH]c(-c5ccc(N6CCN(C)CC6)cc5F)nc34)CC2)no1`
7.06

Now the same for `COCCN1CCN(c2ccc(-c3nc4ncc(Br)c(N5CCN(Cc6cc(C)on6)CC5)c4[nH]3)cc2)CC1`
7.92
